The reported measurements were obtained from ChEMBL document CHEMBL3885881.

Listed molecules paired with reported MEAN CORPUSCULAR HEMOGLOBIN CONCENTRATION
- Species: Rattus norvegicus
- test.description: DrugMatrix - Regimen: Daily Repeat
- Type: toxicity, organism-based, Sprague-Dawley
- Design: regimen Daily Repeat, gender Male, age 6-8 weeks
- test.parameters: in vivo, po, 0 mg/kg, 72 h, tissue Blood, route oral GAVAGE, dose level Control, time 3 day, […]
Lab book: enter the figure in G/DL, no units written.

molecule	recorded.result
c1ccc2[nH]c(-c3cscn3)nc2c1 [THIABENDAZOLE]	39.05
COc1ccc2c(c1)c(CC(=O)OCC(=O)O)c(C)n2C(=O)c1ccc(Cl)cc1 [ACEMETACIN]	37.72
C=CCN [ALLYLAMINE]	31.13
CC(=O)[C@H]1CC[C@H]2[C@@H]3CCC4=CC(=O)CC[C@]4(C)[C@H]3CC[C@]12C [PROGESTERONE]	37.92
CC1=C(/C=C/C(C)=C/C=C/C(C)=C\C(=O)O)C(C)(C)CCC1 [ISOTRETINOIN]	39.03

// query Annotate the molecule Cn1cnc([N+](=O)[O-])c1Sc1ncnc2nc[nH]c12 [AZATHIOPRINE] with its measured MEAN CORPUSCULAR HEMOGLOBIN CONCENTRATION.
// result 39.83

// query Give the reported MEAN CORPUSCULAR HEMOGLOBIN CONCENTRATION for this molecule. CCCCCCCCCc1ccc(O)cc1 [4-NONYLPHENOL]
// result 38.1

---

- Species: Rattus norvegicus
- test.description: DrugMatrix - Regimen: Daily Repeat
- Assay type: toxicity, organism-based, Sprague-Dawley
- Parameters: regimen Daily Repeat, gender Male, age 6-8 weeks
- test.parameters: in vivo, po, 0 mg/kg, 72 h, tissue Plasma, route oral GAVAGE, dose level Control, time 3 day, vehicle .5 % CMC
measurement.type: CREATININE (mg/dL)
Answer format: numeric, mg/dL implied, no suffix.

molecule	CREATININE / mg/dL
COc1c(C)c2c(c(O)c1C/C=C(\C)CCC(=O)OCCN1CCOCC1)C(=O)OC2 [MYCOPHENOLATE MOFETIL]	0.18
O=C1CCc2cc(OCCCCc3nnnn3C3CCCCC3)ccc2N1	0.57
NCC(=O)O	0.55
CCc1cccc2c3c([nH]c12)C(CC)(CC(=O)O)OCC3 (stereo unspecified)	0.55
CC[C@H]1OC(=O)[C@H](C)[C@@H](O[C@H]2C[C@@](C)(OC)[C@@H](O)[C@H](C)O2)[C@H](C)[C@@H](O[C@@H]2O[C@H](C)C[C@H](N(C)C)[C@H]2O)[C@](C)(O)C[C@@H](C)/C(=N\OCOCCOC)[C@H](C)[C@@H](O)[C@]1(C)O	0.55

Now consider a different molecule.
// query Query CREATININE for CC(/C=C1\SC(=S)N(CC(=O)O)C1=O)=C\c1ccccc1
// result 0.18

---

- Species: Rattus norvegicus
- test.description: DrugMatrix - Regimen: Daily Repeat
- Format: toxicity, organism-based, Sprague-Dawley
- Set-up: regimen Daily Repeat, gender Male, age 6-8 weeks
- test.parameters: in vivo, po, 10 mg/kg, 72 h, tissue Blood, route oral GAVAGE, dose level Low, time 3 day, vehicle .5 % CMC
molecules and their reported EOSINOPHIL
Numbers only here, please. The scale is %.

// query Provide only the value of recorded EOSINOPHIL for NS(=O)(=O)c1cc2c(cc1Cl)NCNS2(=O)=O [HYDROCHLOROTHIAZIDE]
// result 0.33
